Experiment: Half life in rat
Type: ADME, organism-based
Details: in vivo
ATTRIBUTE_MEASURED: half-life (h)
One number for each entry, in h.

Input: Given the entry C[C@H]1CN([C@@H]2CC[C@](C)(C(=O)NCc3cc(C(F)(F)F)cc(C(F)(F)F)c3)C2)CC[C@@]12C=Cc1ccccc12 , report its measured half-life.
Output: 8.1

====

Biological target: C-C chemokine receptor type 2 (Mus musculus, UniProt P51683)
Sequence (P51683 whole entry): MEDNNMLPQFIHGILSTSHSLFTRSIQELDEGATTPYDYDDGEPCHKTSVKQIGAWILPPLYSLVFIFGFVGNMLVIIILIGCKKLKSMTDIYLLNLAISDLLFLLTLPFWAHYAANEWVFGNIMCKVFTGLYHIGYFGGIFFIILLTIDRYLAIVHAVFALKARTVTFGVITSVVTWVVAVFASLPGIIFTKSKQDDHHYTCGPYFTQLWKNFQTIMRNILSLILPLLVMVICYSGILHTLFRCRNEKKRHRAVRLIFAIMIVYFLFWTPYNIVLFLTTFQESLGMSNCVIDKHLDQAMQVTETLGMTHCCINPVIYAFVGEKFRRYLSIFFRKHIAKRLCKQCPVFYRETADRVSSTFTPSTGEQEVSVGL
Assay: Displacement of [125]hMCP1 from mouse CCR2 receptor expressed in CHO cells
ATTRIBUTE_MEASURED: IC50 (nM)
Answers are plain numbers, in nM.

Input: Given the entry C[C@H]1CN([C@@H]2CC[C@](C)(C(=O)NCc3cc(C(F)(F)F)cc(C(F)(F)F)c3)C2)CC[C@@]12C=Cc1ccccc12 , report its measured IC50.
Output: 130

====

Biological target: C-C chemokine receptor type 2 (Homo sapiens)
Test: Displacement of [125]hMCP1 from human CCR2 receptor expressed in human monocytes at 1 uM
Format: cell-based
Sequence (P41597 whole entry, looked up): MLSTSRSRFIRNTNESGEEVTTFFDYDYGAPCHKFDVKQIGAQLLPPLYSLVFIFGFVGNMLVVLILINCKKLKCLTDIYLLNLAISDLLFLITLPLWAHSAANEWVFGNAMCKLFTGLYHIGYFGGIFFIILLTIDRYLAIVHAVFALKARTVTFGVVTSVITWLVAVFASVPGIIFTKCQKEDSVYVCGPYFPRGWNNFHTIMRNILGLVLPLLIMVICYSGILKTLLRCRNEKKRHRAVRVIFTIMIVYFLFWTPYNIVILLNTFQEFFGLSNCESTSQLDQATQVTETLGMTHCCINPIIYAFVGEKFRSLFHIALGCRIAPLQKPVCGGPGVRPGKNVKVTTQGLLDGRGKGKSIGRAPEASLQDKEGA
ATTRIBUTE_MEASURED: Activity (%)
Numbers only, in %.

Solved entries (count: 3):
O=C(NCc1cc(C(F)(F)F)cc(C(F)(F)F)c1)[C@@H]1CC[C@H](N2CCC(c3ccccc3)CC2)C1 | 30
O=C(NCc1cc(C(F)(F)F)cc(C(F)(F)F)c1)[C@H]1CC[C@H](N2CCC(c3ccccc3)CC2)C1 | 44
O=C(NCc1cc(C(F)(F)F)cc(C(F)(F)F)c1)C1CCCC(N2CCC(c3ccccc3)CC2)C1 (centres undefined) | 23

Now let's try a different one.
Input: Given the entry O=C(NCc1cc(C(F)(F)F)cc(C(F)(F)F)c1)[C@@H]1CC[C@@H](N2CCC(c3ccccc3)CC2)C1 , report its measured Activity.
Output: 25

====

Assay: Oral bioavailability in rat
Format: ADME, organism-based
Conditions: in vivo
ATTRIBUTE_MEASURED: bioavailability (%)
Numbers only, in %.

Input: Given the entry C[C@H]1CN([C@@H]2CC[C@](C)(C(=O)NCc3cc(C(F)(F)F)cc(C(F)(F)F)c3)C2)CC[C@@]12C=Cc1ccccc12 , report its measured bioavailability.
Output: 15

====

Exercise: state measured pIC50 for each of the molecules provided.
Target: C-C chemokine receptor type 2 (Homo sapiens, UniProt P41597)
Assay: Displacement of [125]hMCP1 from human CCR2 receptor expressed in human monocytes
Type: cell-based
Sequence (P41597 whole entry): as the sequence (P41597 whole entry, looked up) above
Give bare numbers, as −log10 of the molar value.

Solved entries (count: 3):
C[C@]1(C(=O)NCc2cc(C(F)(F)F)cc(C(F)(F)F)c2)CC[C@@H](N2CCC3(C=Cc4ccccc43)CC2)C1 | 7.33
O=C(NCc1cc(C(F)(F)F)cc(C(F)(F)F)c1)C1CCC(N2CCC(c3ccccc3)CC2)C1 (configuration not stated) | 7.19
C[C@H]1CN([C@@H]2CC[C@H](C(=O)NCc3cc(C(F)(F)F)cc(C(F)(F)F)c3)C2)CC[C@@]12C=Cc1ccccc12 | 8.85

Batch of 3 molecules: report pIC50 for each.
1. C[C@H]1CN([C@@H]2CC[C@](C)(C(=O)NCc3cc(C(F)(F)F)cc(C(F)(F)F)c3)C2)CC[C@@]12C=Cc1ccccc12
2. O=C(NCc1cc(C(F)(F)F)cc(C(F)(F)F)c1)[C@H]1CC[C@@H](N2CCC3(C=Cc4ccccc43)CC2)C1
3. O=C(NCc1cc(C(F)(F)F)cc(C(F)(F)F)c1)[C@H]1CC[C@@H](N2CCC(c3ccccc3)CC2)C1

Output:
1. 8.89
2. 8.12
3. 7.44

These entries and their values trace back to ChEMBL document CHEMBL1143063.
